Each recorded value in this set is attributed to ChEMBL document CHEMBL1149424.

Assay: Half life in rhesus macaque
Type: ADME, organism-based, Macaca mulatta
Conditions: rhesus monkey, in vivo
observedProperty: half-life (h)
Please give a number only; it is taken to be in h.

Q: Dear colleague, I am looking for the recorded half-life of the following molecule: CC(=O)Nc1c(C(C)=O)c(=O)n(C)c2nc(-c3ccc(Cl)cc3Cl)c(-c3ccc(Cl)cc3)cc12 [NAPHTHYRIDINONE]
Result: 22

---

Experiment: Plasma clearance in Sprague-Dawley rat
Format: ADME, organism-based
observedProperty: clearance (mL/min/kg)
Please give a number only; it is taken to be in mL/min/kg.

Q: Dear colleague, I am looking for the recorded clearance of the following compound: "CC(=O)Nc1c(C(C)=O)c(=O)n(C)c2nc(-c3ccc(Cl)cc3Cl)c(-c3ccc(Cl)cc3)cc12"
Result: 12

---

observedProperty: pIC50
In plain terms, pIC50 is the concentration in mol/L turned into minus its base-10 logarithm.

Q: Tell me reported pIC50 for "COCCn1c(=O)c(C(C)=O)c(NC(C)=O)c2cc(-c3ccc(Cl)cc3)c(-c3ccc(Cl)cc3Cl)nc21" , tested with Cannabinoid receptor 2 (Homo sapiens).
Sequence (P34972 whole entry): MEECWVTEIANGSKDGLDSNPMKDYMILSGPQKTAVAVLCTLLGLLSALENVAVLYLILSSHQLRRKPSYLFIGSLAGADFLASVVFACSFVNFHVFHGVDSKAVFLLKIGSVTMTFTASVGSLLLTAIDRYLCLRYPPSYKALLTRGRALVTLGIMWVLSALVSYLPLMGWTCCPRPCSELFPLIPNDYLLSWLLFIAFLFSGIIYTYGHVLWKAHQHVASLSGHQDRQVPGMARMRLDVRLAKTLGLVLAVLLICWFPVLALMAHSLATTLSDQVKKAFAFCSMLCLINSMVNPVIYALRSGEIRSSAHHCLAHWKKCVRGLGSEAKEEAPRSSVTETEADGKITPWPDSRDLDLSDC
Result: 5.74

Q: Tell me reported pIC50 for "CC(=O)Nc1c(C(C)=O)c(=O)[nH]c2nc(-c3ccc(Cl)cc3Cl)c(-c3ccc(Cl)cc3)cc12" , tested with Cannabinoid receptor 2 (Homo sapiens).
Result: 5.85

Q: Tell me reported pIC50 for "CC(=O)Nc1c(C#N)c(=O)n(C)c2nc(-c3ccc(Cl)cc3Cl)c(-c3ccc(Cl)cc3)cc12" , tested with Cannabinoid receptor 2 (Homo sapiens).
Result: 6.14

Q: Tell me reported pIC50 for "CC(=O)c1c(N(C)C)c2cc(-c3ccc(Cl)cc3)c(-c3ccc(Cl)cc3Cl)nc2n(C)c1=O" , tested with Cannabinoid receptor 2 (Homo sapiens).
Result: 5.85

Q: Tell me reported pIC50 for "COCC(=O)Nc1c(C(C)=O)c(=O)n(C)c2nc(-c3ccc(Cl)cc3Cl)c(-c3ccc(Cl)cc3)cc12" , tested with Cannabinoid receptor 2 (Homo sapiens).
Result: 5.49

Q: Tell me reported pIC50 for "CC(=O)c1c(N)c2cc(-c3ccc(Cl)cc3)c(-c3ccc(Cl)cc3Cl)nc2n(C)c1=O" , tested with Cannabinoid receptor 2 (Homo sapiens).
Result: 5.96

Q: Tell me reported pIC50 for "CC(=O)c1c(NC(=O)CO)c2cc(-c3ccc(Cl)cc3)c(-c3ccc(Cl)cc3Cl)nc2n(C)c1=O" , tested with Cannabinoid receptor 2 (Homo sapiens).
Result: 5.44

---

Assay: Half life in Beagle dog
Type: ADME, organism-based, Canis lupus familiaris
Conditions: in vivo
observedProperty: half-life

Q: Dear colleague, I am looking for the recorded half-life of the following compound: CC(=O)Nc1c(C(C)=O)c(=O)n(C)c2nc(-c3ccc(Cl)cc3Cl)c(-c3ccc(Cl)cc3)cc12 [NAPHTHYRIDINONE]
Result: > 24 h

---

Test: Half life in C57BL/6 mouse
Format: ADME, organism-based
Settings: in vivo
observedProperty: half-life

Q: Dear colleague, I am looking for the recorded half-life of the following molecule: "CC(=O)Nc1c(C(C)=O)c(=O)n(C)c2nc(-c3ccc(Cl)cc3Cl)c(-c3ccc(Cl)cc3)cc12"
Result: > 8 h

---

Experiment: Rat brain to plasma ratio at 0.25 hrs post iv dosing
Format: ADME, organism-based
Details: Sprague-Dawley
observedProperty: Kp at 0.25 h

Q: Dear colleague, I am looking for the recorded Kp at 0.25 h of the following compound: CC(=O)Nc1c(C(C)=O)c(=O)n(C)c2nc(-c3ccc(Cl)cc3Cl)c(-c3ccc(Cl)cc3)cc12 [NAPHTHYRIDINONE]
Result: 0.9
